# test_target: HLA-A*2402 (human)
# experiment_summary: iTopia off-rate
Labelling: t1/2 reported below 0.3 becomes 1; at or above becomes 0.

INSERT INTO assay_data (binder, assigned_category) VALUES
  ('EQLQEIEYL [cdr2 58-66 EQLQEIEYL]', 0),
  ('LYDLRQHFV [cdr2 164-172 LYDLRQHFV]', 1),
  ('ELYDLRQHF [cdr2 163-171 ELYDLRQHF]', 1),
  ('SFACLKELY [cdr2 157-165 SFACLKELY]', 0),
  ('QHFVYDHVF [cdr2 169-177 QHFVYDHVF]', 1),
  ('HLKKTVTML [cdr2 197-205 HLKKTVTML]', 0);
